# STUDY SYSTEM: OX1 (Homo sapiens)
# Construct: expressed in transfected cells; host or cells: CHO (CHO-OX1, kept under selection antibiotic)
# Sequence (O43613 whole entry): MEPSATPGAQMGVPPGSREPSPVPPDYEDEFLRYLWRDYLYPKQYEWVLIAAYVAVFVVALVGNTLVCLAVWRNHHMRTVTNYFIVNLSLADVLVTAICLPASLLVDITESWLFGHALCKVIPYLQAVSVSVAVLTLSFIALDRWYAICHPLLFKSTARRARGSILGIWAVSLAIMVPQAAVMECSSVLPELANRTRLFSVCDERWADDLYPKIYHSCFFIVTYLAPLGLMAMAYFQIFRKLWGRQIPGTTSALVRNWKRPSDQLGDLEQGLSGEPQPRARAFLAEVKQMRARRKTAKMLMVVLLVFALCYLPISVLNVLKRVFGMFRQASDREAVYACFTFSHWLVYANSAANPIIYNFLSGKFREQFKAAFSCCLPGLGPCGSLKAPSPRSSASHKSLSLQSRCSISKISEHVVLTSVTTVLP
# TEST METHOD NOTES: Orexin receptor cell-based functional assay, [Ca2+]i by FLIPR, CHO-OX1 cells
# EXPERIMENTAL CONTEXT: Table 2; CHO-OX1 cells, EC90 of OXA; read-out: IC50 Bioactivity OX1
REPORTED METRIC: IC50 (µM)
Value expressed in µM; do not type the unit.

Completed entries (count: 5):
> print(dat)
                                   compound  units  observed.measurement
1  Cc1ccc(-n2nccn2)c(C(=O)N2CCC[C@@H](C)[C@H]2CNc2ncc(C(F)(F)F)cn2)c1 (racemic)     µM                 0.009
2  Cc1nc(-c2ccccc2)c(C(=O)N2CC[C@@H](O)C[C@H]2CNC(=O)c2cccc3cccnc23)s1     µM                 0.005
3  C[C@@H]1CCCN(C(=O)c2ccnn2-c2ccccc2)[C@@H]1CNc1ccc(C(F)(F)F)cn1 (racemic)     µM                   0.4
4  Cc1ccc(-c2ccncc2)c(C(=O)N2CCC[C@@H](C)[C@H]2CNc2ccc(C(F)(F)F)cn2)c1 (racemic)     µM                  0.04
5  O=C(NCC1CCC(F)CN1C(=O)c1ccccc1-c1ccccc1)c1cccc2cccnc12 (single isomer, unassigned) [Example 38]     µM                 0.004

Input: Returns the measured IC50 for the input compound. Input: Cc1ccc(-c2ccnn2C)c(C(=O)N2CCC[C@@H](C)[C@H]2CNc2ccc(C(F)(F)F)cn2)c1 (racemic)
Output: 0.013

Input: Query CNC1CCC(CNC(=O)c2cccc3cccnc23)N(C(=O)c2ccccc2-c2ccccc2)C1 (racemic) next
Output: 0.025

Input: Same for COC1CCC(CNC(=O)c2cccc3cccnc23)N(C(=O)c2nc(C)sc2-c2cccc(F)c2)C1 (racemic)
Output: 0.007

Input: Item: Cc1nc(C(=O)N2CC(N)CCC2CNC(=O)c2cccc3cccnc23)c(-c2cccc(F)c2)s1 (racemic)
Output: 0.065

Input: What about this compound? CO[C@@H]1CCCN(C(=O)c2nc(C)sc2-c2ccc(F)cc2)[C@@H]1CNc1ncc(Cl)cn1 (racemic)
Output: 0.1

Input: Same question, Cc1nc(C(=O)N2CCC[C@@H](C)[C@H]2CNc2ncccc2C(F)(F)F)c(-c2ccc(F)cc2)s1 (racemic) this time
Output: 0.082

Input: Input CCc1cnc(NC[C@@H]2[C@H](CC)CCCN2C(=O)c2nc(C)sc2-c2ccc(F)cc2)nc1 (racemic)
Output: 0.002

Input: Here is the next compound: Cc1nc(C(=O)N2CCC[C@@H](C(C)C)[C@H]2CNc2nc3ccccc3o2)c(-c2ccc(F)cc2)s1 (racemic)
Output: 0.035

Input: Would you mind doing Cc1nc(-c2ccccc2)c(C(=O)N2CC[C@H](O)[C@H]2CNC(=O)c2cccc3cccnc23)s1 as well?
Output: 0.006

Input: Next compound: Cc1ccc(-c2cccnc2)c(C(=O)N2CCC[C@@H](C)[C@H]2CNc2ccc(C(F)(F)F)cn2)c1 (racemic)
Output: 0.001
